# test_summary: yeast display, Sf9 membrane polyspecificity reagent, FACS + sequencing; frameworks hold sequencing errors
measured_property: polyreactivity (PSR sort gate)

Previously resolved entries follow.
>  <sequence_record>
QVQLLETGGGLVQAGGSLRLSCAASGSILRWYVRGWYRQAPGKERELVADIDSGGSTNYADSVKGRFTISRDNAKNTVFLQMNSLKPEDTAVYYCASDVPSRSRYGVYRRDGMDYWGQGTQVTVSS

>  <recorded_value>
low polyreactivity

$$$$
>  <sequence_record>
QVQLVESGGGLVQAGGSLRLSCAASGFIFTPYAKGWYRQAPGKERELVAAISSGGSTYADSVKGRFTISRDNAKNTVYLQMNSLKPEDTAVYYCAAYYTGYSTTYYYWGQGTQVSVSS

>  <recorded_value>
low polyreactivity

$$$$
>  <sequence_record>
QVQLVESGGGLVQAGGSLRLSCAASVGIYSQNVRGWYRQAPGKEWELVAAISRRGGRTYYADSVKGRFKISRDNAKNTVYLQMNSLKPEDTAVYYCATLSPERRVYYTYSGLFEYWGQGTQVTVSS

>  <recorded_value>
high polyreactivity

$$$$
>  <sequence_record>
QVQLVESGGGLVQAGGSLRLSCAASGFILGANAMGWYRQAPGKERELVAAIRSSDGTTYYADSVKGRFTISRDNAKNTVYLQMNSLKPEDTAVYYCAADWRLLYEYWGQGTQVTVSS

>  <recorded_value>
high polyreactivity

$$$$

Working through the 4 sequences below one at a time, give polyreactivity (PSR sort gate) for each.
1. QVQLVESGGGLVQAGGSLRLSCAASGFTFYIYAMGWYRQAPGKERELVAAITTTTGSTYYADSVKGRFTISRDNAKNTVYLQMNSLKPEDTAVYYCAAEGHYYYFGYYYWGQGTQVTVSS
2. QVQLVESGRGLVQEGGSLRLSCAASGFTFYGYAMGWYRQAPGKERELVAAINSGGRTYYADSVKGRFTISRDNAKNSVYLQMNSLKPEDTAVYYCAAVSLYTSDYYWGQGTQVTVSS
3. QVQLVESGGGLVQAGGSLRLSCAASGSTFYYKSMGWYRQAPGKERELVAAITFTGGSTYADSVKGRFTISRDNAKNTVYLQMNSLIPEDTAVYYCAATIQGHDYLGTGYDYWGQGTQVTVSS
4. QVQLVESGGGLVQAGGILSLSCAASGFTFTVYDMGWYRQAPGKERELVAVITSGDGTYYADSVKGRFTISRDNAKNTVYLQMNSLKPEDTAVYYCNARRYSSFRYRFAYDYWGQGTQVTVTS

OUTPUT:
["low polyreactivity", "high polyreactivity", "low polyreactivity", "low polyreactivity"]

Batch: polyreactivity (PSR sort gate) for all items listed.
1. QVQLVESGGGLVQAGGSLRLSCAASGTTFTFNAMGWSRQAPGKERELVAAMSRSGGRTYYADSVKGRFTISRDNAKNTVYLQMNSLNPEDTAVYYCANDFVEQGRYNVGYWGQGTQVTGSS
2. QVQLVESGGGLVQAGGSLRLSCAASGSIFVTNAMGWYRQAPGKERELVAAIRGGGGSTYYADSVKGRFTISRDNAKNTVYLQMNSLKPEDTAVYYCNADRRGYLQSEMDYWGQGTQVTVSS
3. QVQLVESGGGLVQAGGSLRLSCAASGFIFKGYAKGWYRQAPGKERELVAAINTSGGSTYYAVSVKGRFTISRDNAKNTVYVQMNSLKPEDTAVYYCNVRNRSRPYLPFWPDDNWGQGTQVTVSS
4. QVQLVESGGGLVQAGGSLRLSCAASGFTFGRYAMGWYRQAPGKERELVAAISFSGGRTYYADSVKGRFTISRDNAKNTVYLQMNSLKPEDTAVYYCNTAYWYSLYDYWGQGTQVTVSS
5. QVQLVESGGGLVQAGGSLRLSCAASGRILGAYAMGWYRQAPGKERELVASISSGGRTYYADSVKGRFTISRDNAKNTVYLQMNSLKPEDTAVYYCNRDRNSGFYRRYGYWGQGTQVTVSS

OUTPUT:
1. high polyreactivity
2. low polyreactivity
3. high polyreactivity
4. high polyreactivity
5. high polyreactivity

For every listed record, write down its polyreactivity (PSR sort gate).
1. QVQLVASGGGLVQAGGSLRLSCAASGSTFYYNAMGWSRQAPGKERELVAVISTSDGSTNYADSVKRRFTISSDNAKNTVYLQMISLKPEDTAVYYCAADYSESRRFDYWGQGTQVTVSS
2. QVQLVESGGGLVQAGGSLRLSCAASGRIFGLYSRGSYRQAPGKERELVAAISSRGGSTYYADSVKGRFTISRDNAKNTVYLQMNSLKPEDTAVYYCARETSYFGPSDYDYWGQGTQVTVSS
3. QVQLVESGGGIVQAGGSLRLSCAASGRIFYINAMGWYRQSPGKERELVAAITGSGGRTYYADSVKGRFTISRDNAKNTVYLHINSLKPEDTAVYYCAAQKKHYSYSYWYDSLGQGTQVTVSS
4. QVQLVESGGGLVQAGGSLRLSCAASGRTFGRYAMGWYRQAPGKERELVAAISIRGGRTTYADSVKGRFTISRDNAKNTVYLQMNSLKPEDTAVSYCAKVISVRGGYGYWGQGTQVTVSS
5. QVQLVESGGGLVQAGGSLRLSCAASGSIFAKYAMGWYRQAPGKEREFVAAIRASGGRTYYADSVKGRFTISRDNAKNTVYLQMNSLKPEDTAVYYCAAHLYSSRSDYDGPRSRRNYWGQGTQVTVSS
6. QVQLVESGGGLVQAGGSLRLSCAASGSIFWPYAMGWYRQAPGKERELVAAISSSTGRTYYADSVKGRFTLSRDNEKNTVYLQMNSLKPEDTAVDYCAADIGTTSYRYYYWGQGTQVTVSS

OUTPUT:
["low polyreactivity", "high polyreactivity", "high polyreactivity", "high polyreactivity", "high polyreactivity", "high polyreactivity"]

Dear reader, for each entry below, please note its polyreactivity (PSR sort gate).
1. QVQLVESGGGLVQAGGSLRLSCAASGRTFGIYAMGRYRQAPGKERELVAAITGRGGSTHYADSVKGRFTISRDNAKNTVYLQMNSLKPEDTAVYYCAADYRYNRGITSNKDYDYWGQGTQVTVSS
2. QVQLVESGAGLVQAGGSLRLSCAASGSIFYPYAMGWYRQAPGKERELVAAITYSGGSTYADSVKGRFTISRDNAKNTVYLQMNSLKPEDTAVYYCAARYIIHVGSWYDYWGQGTQVTVSS

OUTPUT:
1. low polyreactivity
2. high polyreactivity

###

# test_summary: yeast display, Sf9 membrane polyspecificity reagent, FACS + sequencing; frameworks hold sequencing errors
measured_property: polyreactivity (PSR sort gate)

Below: 8 sequences and their reported polyreactivity (PSR sort gate).
>  <sequence_record>
QVQLVESGGGLVQAGGSLRLSCAASGSTFDSNVMGWYRQAPGKERELVAAINYSGVRTYYADSVKGRFTISRDNAKNTVYLQMNSLKPEDTAVYYCNARLFSYRYPEGGYWGQGTQVTVSS

>  <recorded_value>
high polyreactivity

$$$$
>  <sequence_record>
QVHLVESGGGLVQAGGSLRISCAASGFTFRKYSMGWYRQAPGKERELVAGITSGGSTNNADSVKGRFTISRDNAKNTVYLQMNSLKPEDTAVYYCNAARYYAYIGDYWGQCTQVTVSS

>  <recorded_value>
high polyreactivity

$$$$
>  <sequence_record>
QVQLQESGGGLVLAGGSLRLSCSASGNISVYGSMGWYRQAPGKEREFVATIDPGTNTNYADSVKDRFTISRDNAKNTVYLQMNTRKPEDTAVYYCAVEAGSDWPYRYWGQGTEVTVSS

>  <recorded_value>
low polyreactivity

$$$$
>  <sequence_record>
QVQLLESGGGLVQAGGSLRLSCAASGSIFTGNAMGWYRQAPGKERELVAAISSSGGSTYYADSVKGRFTISRDNAKNNVYLQMNSLKPEDTAVYYCAAYNYFLQYDYWGQGSQVTVSS

>  <recorded_value>
low polyreactivity

$$$$
>  <sequence_record>
QVQLVESGGGLVQAGGSLRLSCPASGRIFPRYAMGWYRPAPGKERELVARITRRGGITYYADSVKGRFTISRDNAQNTVYLEMNSLKPEDTAVYYCNVDYYRGGDFSYGYDYWGQGTQLTVSS

>  <recorded_value>
high polyreactivity

$$$$
>  <sequence_record>
QVQLVESGGGLVQAGGSLRLSCAASGRIFYYNTMGWYRQAPGKARELVAAITTNGGSTYYADSVKGRFTISRDNAKNTVYLQMNSPKPEDTAVYYCNRDRYPYYYAYNYWGQGTQVTVSS

>  <recorded_value>
low polyreactivity

$$$$
>  <sequence_record>
QVQLVESAGGLVQAGGSLSLSCAASGRILDRNGMGWYRQAPGKERELVATITGIADSTYYADSVKGRFTISRDNAKNTVYLQMNSLKPEDTAVYYCAADKYVAEYDYWGQGTQVTVSS

>  <recorded_value>
low polyreactivity

$$$$
>  <sequence_record>
QVQLVESGGGLVQAGGSLRLICAASGRTFRFYAMGWYRQAPGKERELVAAINYGGGNTYYADSVKGRFTISRDNAKNTVYLQMNSLKADDTAVYYCAAQYYYRARWFPYDYWGQGTQVTVSS

>  <recorded_value>
high polyreactivity

$$$$

Parameters: items (list). Returns: polyreactivity (PSR sort gate) for each item.
1. QVQLVESGGGLVQAGGSLRLSCASSGNTFVAYAMGWYRQAPGKERELVAGITRGGTTYYADSVKGRFTISRDNAKNTVYLQMNSLKPEDTAVYYCAARLGYRYNYWGQGTQVTVSS
2. QEQLVESGGGIVQAGGTLRLSGADSGSIFVKNAMGWYRQAHGKERQWVARITYSGGSTYYADSVKGRFTISRDNAKNTVYLQMNSLKPEDTAVYYCAARYWYFPQPYYPGNDYWGQGTQVTVSS
3. QVQLVESGGGLVQAGGSRRLSCAASGSIFYTYLMGWYRPAPGTDRELVAAISASGVRTYYADSVKGRFTISRDNAKITVYLEMNSLKPEDTAVYYCAADRQRADYYWGQGRQVTVSS

OUTPUT:
["high polyreactivity", "high polyreactivity", "high polyreactivity"]

Taken from the nanobody polyreactivity screen of Harvey et al. (2022).
